Test system: RXRa DBDmut IVT, anti-RXR (DBD mutation: RXRa K156A/R161A, NR concentration 90 nM)
Test: PBM binding z-score (relative to random genomic background probes); higher = stronger binding; sequences stand for … in GC…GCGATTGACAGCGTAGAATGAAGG
Measured Quantity: PBM binding z-score
Keep it simple and answer with nothing but the number.

IN: May I ask what PBM binding z-score has been recorded for "AGAATGAGGTTATCAAGATCAGGGAATTGCGGTC" ?
OUT: 1.46

IN: May I ask what PBM binding z-score has been recorded for "TCCATTAGTTGAAGGGCAACCGACGAGTCCGTTT" ?
OUT: 1.9

IN: May I ask what PBM binding z-score has been recorded for "GTACCAAGGTGCATAGGTCGTTGATGAGTAGGCG" ?
OUT: 0.546

IN: May I ask what PBM binding z-score has been recorded for "ATATTTAGGTTAGCTGGGGTCATTCAGACTAGGC" ?
OUT: 2.19

IN: May I ask what PBM binding z-score has been recorded for "GCTAGTTGGTCAGTAAAAGGTCACACAGCGGTCG" ?
OUT: 0.686

IN: May I ask what PBM binding z-score has been recorded for "ATCGAAATGTCGACGAGGTGAGTATACACCGTTT" ?
OUT: -0.0108

IN: May I ask what PBM binding z-score has been recorded for "TTTACAGGGTCAAAGGCCAGAGTACGAATGTCGA" ?
OUT: 3.13

IN: May I ask what PBM binding z-score has been recorded for "CAAACTAGGTCAAGGCCAAAGTCGGTTTGTGCCA" ?
OUT: 1.81

IN: May I ask what PBM binding z-score has been recorded for "TCGAGTAGGTTAGTCGGGGCCTTCAGCCAACATA" ?
OUT: 0.14

IN: May I ask what PBM binding z-score has been recorded for "ATCTCTAGGTAAGACCCAGTTCAGTGAAGAACGC" ?
OUT: 0.175

IN: May I ask what PBM binding z-score has been recorded for "GCTAGTTGGTCAGTAAAAGGACACACACCGGTCG" ?
OUT: -0.384

IN: May I ask what PBM binding z-score has been recorded for "CCTAGTTGGTCAGGAGATCACACACCGGATATGA" ?
OUT: 0.108

IN: May I ask what PBM binding z-score has been recorded for "TTACCAAGGTGAACGTCGTTGATCCCTCTGTAGA" ?
OUT: -0.298

IN: May I ask what PBM binding z-score has been recorded for "ATCTCTAGGTAAAGTTCAGTGTAAGATCGATAGA" ?
OUT: 1.71

IN: May I ask what PBM binding z-score has been recorded for "CCTCGGATGACAACAGGAGGTCAGAGCTGCCAGA" ?
OUT: -0.48

IN: May I ask what PBM binding z-score has been recorded for "CCTTACGGGTCCAGGTTATAGCACGGGTGGTACG" ?
OUT: -0.824

IN: May I ask what PBM binding z-score has been recorded for "TCTGGTAGATCAAAGGTTAAGAAAGCCGAAGCCT" ?
OUT: 0.747

IN: May I ask what PBM binding z-score has been recorded for "CCTATTAGTTGACCATAACGGCAACCGAAGCTCG" ?
OUT: 0.595

IN: May I ask what PBM binding z-score has been recorded for "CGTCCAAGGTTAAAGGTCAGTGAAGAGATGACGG" ?
OUT: 2.09

IN: May I ask what PBM binding z-score has been recorded for "AGTCAAAGTTCACTAGGTCACGTAAGATTCAGCT" ?
OUT: 4.43

IN: May I ask what PBM binding z-score has been recorded for "CCTCGGAGCACAACAGGAGGTCAGAGCTGCCAGA" ?
OUT: -0.138

IN: May I ask what PBM binding z-score has been recorded for "TCTTGTAGATCAACAGGAAGTTAAGAAAGATCGA" ?
OUT: 0.508

IN: May I ask what PBM binding z-score has been recorded for "CCTACTGGGCCACGAATGGTCATTGATTCAGTGA" ?
OUT: -0.448

IN: May I ask what PBM binding z-score has been recorded for "GCGACTGGGCCATCAGCAGGTTACCATAACTTAA" ?
OUT: -0.654

IN: May I ask what PBM binding z-score has been recorded for "AGAATGAGGTTATTAAGCTCAGGGAATTGCGGTC" ?
OUT: 2

IN: May I ask what PBM binding z-score has been recorded for "CCGACTGGGGCATAAGGTTAGCATAAGCCAGCCC" ?
OUT: -0.721

IN: May I ask what PBM binding z-score has been recorded for "AGAACGAGGGCACGCTGAGTTGATAGCAGAGTAG" ?
OUT: 1.95

IN: May I ask what PBM binding z-score has been recorded for "TCATATAGGTAAAGGTGAACGTCGAACGATATGA" ?
OUT: 0.894

IN: May I ask what PBM binding z-score has been recorded for "ATACGTAGGTTAGCTGGGGTCATTCAGACTAGGC" ?
OUT: 1.65

IN: May I ask what PBM binding z-score has been recorded for "TGAATGAGGTTCAAGATCAGGGAACGTGGCGTCG" ?
OUT: 2.14

IN: May I ask what PBM binding z-score has been recorded for "TCATATAGGTAAATGCTACGTGAAAGTCCGATCT" ?
OUT: 1.58

IN: May I ask what PBM binding z-score has been recorded for "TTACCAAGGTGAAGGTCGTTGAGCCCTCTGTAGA" ?
OUT: 0.1

IN: May I ask what PBM binding z-score has been recorded for "CTCGAAAGGTCGTGCTCAGGTGACTATACCAAAC" ?
OUT: 2.15

###

Test system: RARg:RXRa (NR concentration 270 nM, RXRa partner concentration 90 nM)
Test: PBM binding z-score (relative to random genomic background probes); higher = stronger binding; sequences stand for … in GC…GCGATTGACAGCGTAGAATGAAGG
Criterion: PBM binding z-score meeting or surpassing 1. Met: Fulfilled. Not met: Not fulfilled.

IN: hey, is PBM binding z-score for this one >= 1? "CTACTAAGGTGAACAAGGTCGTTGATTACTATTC"
OUT: Fulfilled

IN: hey, is PBM binding z-score for this one >= 1? "CGAGCGAGGGCATGAGTTGATAGCAAATGCCGAT"
OUT: Fulfilled

IN: hey, is PBM binding z-score for this one >= 1? "CCTAGCTGGCCAATCTGGGTCACTCAAGGCTTGA"
OUT: Not fulfilled

IN: hey, is PBM binding z-score for this one >= 1? "ATCTCTAGCTAACCAAGTTCAGTGAATGCCGAAC"
OUT: Not fulfilled

IN: hey, is PBM binding z-score for this one >= 1? "CAAACTAGGTCAAGGTCAAACTCGGTTTGTGCCA"
OUT: Fulfilled

IN: hey, is PBM binding z-score for this one >= 1? "GACACAGGGTCAAGGCCAGAGTACGCGTATTGAT"
OUT: Fulfilled

IN: hey, is PBM binding z-score for this one >= 1? "GCATGTAGGTAATACAAGGTGAAAGTCCGATTGT"
OUT: Not fulfilled

IN: hey, is PBM binding z-score for this one >= 1? "CGTCCAAGTTCAATGCTAGGTCAGTGAAAGCATT"
OUT: Fulfilled

IN: hey, is PBM binding z-score for this one >= 1? "CCTAGTTTGTCAAGGTCACACACGCTATAGGTAC"
OUT: Fulfilled

IN: hey, is PBM binding z-score for this one >= 1? "TCATATAGGTAAACAGGGGAAAGTCCGTAAGTTA"
OUT: Not fulfilled

IN: hey, is PBM binding z-score for this one >= 1? "TTACCAAGGTGAAGGTCGTTGTTCCCTCTGTAGA"
OUT: Fulfilled

IN: hey, is PBM binding z-score for this one >= 1? "ATATGTAGATTACATCCGGGTCATTCAGGCTATG"
OUT: Fulfilled

IN: hey, is PBM binding z-score for this one >= 1? "TCTAGTTGGTCACGGACGTCACACACGACGGGTA"
OUT: Fulfilled

IN: hey, is PBM binding z-score for this one >= 1? "TCTTGTAGATCAATAGAGGTTAAAAAAGTGCGCT"
OUT: Not fulfilled

IN: hey, is PBM binding z-score for this one >= 1? "ATCGAAAGGTCGGAGGTGAGTATACCCACCCGAA"
OUT: Fulfilled

IN: hey, is PBM binding z-score for this one >= 1? "ATCTCTAGCTAACAAGTTCAGTGAAAGAGAGGAC"
OUT: Not fulfilled

IN: hey, is PBM binding z-score for this one >= 1? "TGAATGAGGTTATAAGATCGGGGAACGTTGCAAA"
OUT: Fulfilled

IN: hey, is PBM binding z-score for this one >= 1? "ATCGAAAGGTCGAGCTGAGTATAGAGAAAGGGAA"
OUT: Fulfilled

IN: hey, is PBM binding z-score for this one >= 1? "ACCAGCAGGCCAAGTTTGGGTCACTCAAACAAAG"
OUT: Fulfilled

IN: hey, is PBM binding z-score for this one >= 1? "CTACCCAGGTGAACAAGGTCGTTGATTACTATTC"
OUT: Fulfilled

IN: hey, is PBM binding z-score for this one >= 1? "AGAACGAGTGCACGCTGAGTTGATAGCAGAGTAG"
OUT: Not fulfilled

IN: hey, is PBM binding z-score for this one >= 1? "TCTCGGATGACACGAAGGTCAGAGCTTTCCAGAG"
OUT: Fulfilled

IN: hey, is PBM binding z-score for this one >= 1? "TTATCAAGGTGAAGGTCGTTGATCCCTCTGTAGA"
OUT: Fulfilled

IN: hey, is PBM binding z-score for this one >= 1? "CCAGACAGGTGGGAAGGTAACTCAGCCTCGATTA"
OUT: Not fulfilled

IN: hey, is PBM binding z-score for this one >= 1? "ACAGACAGGTGAATGAAGGTAACTCAGCTGGACG"
OUT: Not fulfilled

IN: hey, is PBM binding z-score for this one >= 1? "ATGTCTAGGTAAGACTCAGTTCAGTGAAGAACGC"
OUT: Not fulfilled

IN: hey, is PBM binding z-score for this one >= 1? "CCGACTGGGGCAAGGTTACCGTAACGCACAGCCA"
OUT: Fulfilled

IN: hey, is PBM binding z-score for this one >= 1? "ATCGAAAGGTCTTGAGGTGAGTATACAGAAAGGC"
OUT: Fulfilled

IN: hey, is PBM binding z-score for this one >= 1? "AGTCAAAGTTCATCTAGATAACGTAAGATATGCT"
OUT: Fulfilled

IN: hey, is PBM binding z-score for this one >= 1? "AGAAGGAGGTTATACGTAGATCAGGGAAGAAAGT"
OUT: Fulfilled

IN: hey, is PBM binding z-score for this one >= 1? "CCTACTGGGCCACGAAAGGTCATAGATTCAGTGA"
OUT: Fulfilled

IN: hey, is PBM binding z-score for this one >= 1? "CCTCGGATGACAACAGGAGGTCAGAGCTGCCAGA"
OUT: Fulfilled

IN: hey, is PBM binding z-score for this one >= 1? "CCTCCAAGGTCAATGCTAGGTCAGTGAAAGCATT"
OUT: Fulfilled

IN: hey, is PBM binding z-score for this one >= 1? "AGAATGAAGTTACCAAAGATCAGGGAAACGCTTG"
OUT: Not fulfilled

IN: hey, is PBM binding z-score for this one >= 1? "TCTAGCAGGTCAGAGGGTCACTCAAGAGGTACGG"
OUT: Fulfilled

IN: hey, is PBM binding z-score for this one >= 1? "CGTCCATGGTCAATGCTAGGTCAGTGAAAGCATT"
OUT: Fulfilled

IN: hey, is PBM binding z-score for this one >= 1? "CATACAGGGTCAGCTAGGGCAGAGTAGGGACGGC"
OUT: Fulfilled

Where do these numbers come from? They come from the supplement of paper PMC6555819.
